- target entity: CD4-gp120 interaction (Human immunodeficiency virus type 1, UniProt Q75760)
- method description: CD4 inhibition ELISA (competition ELISA, sCD4 binding to immobilized gp120)
pIC50: −log10 of the molar value.
reported property: pIC50

compound="COc1ccnc2[nH]cc(C(=O)C(=O)N3CCN(C(=O)c4ccccc4)C[C@H]3C)c12 [Formula 1, reference compound]" measured=5.89

All figures here come from patent US10188727B2.
